# Tested on: Entamoeba histolytica
# TEST NAME: Antiprotozoal activity against Entamoeba histolytica after 24 hrs by trypan blue assay
# Assay type: functional, organism-based
VALUE TYPE: pIC50
API: returns pIC50 as number; meaning -log10 of concentration in mol/L.

Inquiry: Output measured pIC50 for this item: `C=CS(=O)(=O)C1=C[C@@H](OC)O[C@@H]1COC(c1ccccc1)(c1ccccc1)c1ccccc1`
Reply text: 4.42

Inquiry: Using the record for `C=CS(=O)(=O)C1=C[C@H](OC)O[C@@H]1COC(c1ccccc1)(c1ccccc1)c1ccccc1` , state its measured pIC50.
Reply text: 4.48

Inquiry: Give the measured pIC50 for `C=CS(=O)(=O)C1=C[C@H](OC)O[C@@H]1COCc1ccccc1`
Reply text: 4.71

Inquiry: Kindly indicate its recorded pIC50. Item: `C=CS(=O)(=O)C1=C[C@@H](OC)O[C@@H]1COCc1ccccc1`
Reply text: 4.61

Inquiry: Report measured pIC50; entry is `Cc1ncc([N+](=O)[O-])n1CCO`
Reply text: 5.60
